method notes: endothelial E-selectin expression blockers – imaging, HUVEC, immunofluorescence, MLSMR starter and 10KST1 sets, primary screen (AID 487);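 further: signal is fraction of cell area covered by stained E-selectin grains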
stated conditions: HUVEC TNFalpha-induced E-selectin immunofluorescence imaging, at 2 µM; stronger effect = higher value
measured endpoint: inhibition (%)

| compound | reported measurement |
| --- | --- |
| N#CCCn1ccc(NC(=O)c2ccc(Cl)cc2)n1 | -23 |
| CCOc1ccccc1-c1nc(-c2ccc(C)nc2OC)no1 | 1.8 |
| CCOc1ccc2[nH]c(=O)c(CN(Cc3nnnn3CCc3ccccc3)CC3CCCO3)cc2c1 (stereo not given) | 17.7 |
| COCCNC(=O)c1snc2ccc(Cl)cc12 | -175 |
| COc1ccc(C)cc1NC(=O)CN(Cc1nnc(-c2ccc(Cl)cc2)o1)C1CCCC1 | -43.8 |
| Cc1sc2ncn3ncnc3c2c1C | 25.3 |
| CC(=O)c1ccc(-n2nnnc2SCC(=O)N2CCc3ccccc3C2)cc1 | 0 |
| CCCN(C(=O)CSc1nnc(-c2ccoc2C)n1N)C1CCS(=O)(=O)C1 (stereo not given) | 30.6 |
| O=C1CCNc2cc3ccccc3cc21 | 24.1 |
| COC(=O)c1cccc(S(=O)(=O)N2CCC(C)CC2)c1 | -70.6 |
| CCCC(c1nnnn1Cc1ccc(OC)cc1)N1CCN(c2ccccc2OC)CC1 (stereo not given) | -14.7 |
| CSc1ccc(Cn2nnc(C(=O)NCc3ccccc3)c2N)cc1 | -74.8 |
| COc1ccc2c(c1OC)C(=O)N(c1ccc3c(c1)CCC3)C2=O | -10.6 |
| Cc1ccc2nc(NC(=O)C3CCCN(S(=O)(=O)c4cccc5nonc45)C3)sc2c1 (stereo not given) | -3.1 |
| Cc1oc(-c2ccc(Cl)cc2)nc1CS(=O)CC(=O)NCCCN(C)C1CCCCC1 (stereo not given) | -47 |
| Cc1cc(C(F)(F)F)nn1Cc1ccc(C(=O)NCc2ccco2)o1 | -36 |
| CCc1nnc2sc(-c3cc(-c4ccccc4)nc4ccccc34)nn12 | 3.3 |
| O=C(NCC1CCCO1)c1cccc(N2CCCC2=O)c1 (stereo not given) | -32.7 |
| CN(C)S(=O)(=O)c1ccc2c(c1)c(=O)c(C(=O)NCCCN1CCCCCC1)cn2C | -51.2 |
| Cc1ccc(CCNC(=O)CC2Oc3ccc(C)cc3NC2=O)cc1 (stereo not given) | -33.5 |
| CCCCNC(=O)C(C#N)c1nc2ccccc2nc1N1CCCC1 (stereo not given) | 9 |
| FC(F)Oc1ccc(-c2csc(Cc3nnc4n3CCCCC4)n2)cc1 | 84.7 |
| CC(=O)NC(Cc1ccc(C)cc1)C(=O)NC1CCN(C(=O)c2cnccn2)CC1 (stereo not given) | -42 |
| CCn1c(=O)cc(OCC(=O)Nc2nc(C)cs2)c2ccccc21 | -54.6 |
| CC(=O)Nc1ccc(S(=O)(=O)NCc2csc(-c3cccnc3)n2)cc1 | -19.2 |
| COc1ccc(N(CC(=O)NCCSC(C)(C)C)S(C)(=O)=O)c(OC)c1 | -18.2 |
| O=c1c(CN2CCN(Cc3ccccc3)CC2)coc2ccc(Cl)cc12 | -69.1 |
| CCOC(=O)c1cn(CC)c2cc(N3CCOCC3)c(F)cc2c1=O | -45.9 |
| Cn1cc(C(=O)c2ccc(F)cc2)cc1-c1nc2ccccc2n1C | 5.7 |
| CN(C)c1ccc(/C=C/c2ccncc2)cc1 | -76.4 |
| CC1(C)CC(=O)C(C=NCC2CCNCC2)=C(O)C1 | -10.9 |
| Cc1c(NC(=O)C2(c3ccccc3)CCOCC2)c(=O)n(-c2ccccc2)n1C | 25.9 |
| COc1ccc(C2C(C#N)=C(N)OC3=C2C(=O)CC(C)C3)c(OC)c1OC (stereo not given) | 11.3 |
| CCOC(=O)c1sc2nc(NC(=O)C(C)(C)C)sc2c1C | -25.6 |
| CCOc1ccc(S(=O)(=O)NCC2CCCO2)c2cccnc12 (stereo not given) | 36.8 |
